Hey, just so you know, these numbers are from a protein production outcome set (Wang et al. 2014).

test: label from the status in PepcDB records
MEASUREMENT_TYPE: protein production

Would you please look over these solved cases?
{"RECORD_SEQUENCE": "MPLPKSLKYGDTIGIYSPSSPVTYTSPKRFERAKSYLLQKGFHILEGSLTGRYDYYRSGSIQERAKELNALIRNPNVSCIMSTIGGMNSNSLLPYIDYDAFQNNPKIMIGYSDATALLLGIYAKTGIPTFYGPALVPSFGEFEPFVDDTYKYFLETLLHDQALPYNIKQPLFWSDEFINWEEKTKEKELRPNNWISVTNGQATGRVIGGNLNTIQGIWGSPYMPCIQEGDILFIEDSSKDAATIERSFSFLKINGVFDKVSGIILGKHEQFDDCGTNRKPYEILLEVLQNQRIPLLADFDCCHTHPMITMPIGVQVKMDATNKTIHILEKWKI", "MEASUREMENT_TYPE": "protein production", "TEST_VALUE": "not failed"}
{"RECORD_SEQUENCE": "MPSSDLRAFVVRVVIVLALVAYAWLLWALSGLLLMVFGAVVVAVLLRALASWVTRYTPLSDGMALGLVVVVVAVGFTALLWLFGSQLATELGALQRTLPQAWARFHDWVAAGPLGPALEELTRQAPARVSNLAPRAGAFALSITGGVANLFLVLAGAVYLAAQPQLYRRGVLLLFPVQVRATMDDAVRASGTALRLWLRGQLLAMVVVGALTGLGLWALGIPGALALGIIAGLLDFVPIVGPILAAIPAILLGFTVSPQMALATAALFVVVQQIEGNILLPLIQQRTVDLPPVLLLFSLFGIGTLLGPAGVLLAAPLTVVAFVLVKRLYVQEALHTPTSIPGQKHH", "MEASUREMENT_TYPE": "protein production", "TEST_VALUE": "failed"}
{"RECORD_SEQUENCE": "MTDNRKFEIVADTELPGTPERVWQAVTKDTPAWMFPTDQWPDVKTTEEYPSHLVSRMDGPDGWFNQLEHVLEPLEGGRAKLHYVHSGIFADNWDEQYDGASKHTEFYLHTLGQYLQHFDGKPVVFTDIQAPPSSQAPDGFVQLKQALGVDGLPTGTSVDVDIDGVGRLSAEVDFSNENFLGLRTADTMYRFFGRNVFGAPVGMTVHEFSGSGDSELTAKAWGAFLEKVYALEHHHHHH", "MEASUREMENT_TYPE": "protein production", "TEST_VALUE": "failed"}
{"RECORD_SEQUENCE": "MQTESNPLAERFIARNLLDLAIRITLIGGLTVWCYRVAEPFIGMLLWSIILAVTLAPLHMRLTRLLGARPRLAAVVLTLATMLVLLVPGAMLTASLGDSLVNIFHHSTGRIVRIPAPPDFVIELPLIGVRLHEIWLQAMTNLQDVLKPLQPHLATAGRWLLAGMASAGLGIAVFLASIAIAGVILVYADPAKRAAHAIGVRIAGPEQGVALAQLTAATIRAVAQGVIGVALIQAVLAGLGFLLAGVPAAGLWAIVALLICIVQLPLFLLMVPMVVYVFLNNTPTVAAVFAVWCLLVSLCDNVLKPLMLARGVDIPIPVILIGALGGVLAAGIVGLFLGSVGFGLGYVLFMQWVRQQSPAG", "MEASUREMENT_TYPE": "protein production", "TEST_VALUE": "failed"}
{"RECORD_SEQUENCE": "MNKFELYHPILTEHFALDWLTHSKVRDIFELRHDPEIAKASDRDIDATIEDTTTYVNQMMRLVMNNEALIWGITDQNTHEFLGTFCIWDFDQAQKSASVRFEILRNQQHKGIMSEVLRRMSIFSFEELGLEKLFATALKNNTIARTLLEQVGFSAVASQTDNQNITLELNRH", "MEASUREMENT_TYPE": "protein production", "TEST_VALUE": "failed"}
{"RECORD_SEQUENCE": "MSKKKGLSAEEKRTRMMEIFSETKDVFQLKDLEKIAPKEKGITAMSVKEVLQSLVDDGMVDCERIGTSNYYWAFPSKALHARKHKLEVLESQLSEGSQKHASLQKSIEKAKIGRCETEERTRLAKELSSLRDQREQLKAEVEKYKDCDPQVVEEIRQANKVAKEAANRWTDNIFAIKSWAKRKFGFEENKIDRTFGIPEDFDYID", "MEASUREMENT_TYPE": "protein production", "TEST_VALUE": "failed"}

IN: Which protein production is reported for this sequence? "MNQLIFDFAAHDYPSFDKFLGTENAELVYVLRHKHGQFIYVWGEEGAGKSHLLQAWVAQALEAGKNAAYIDAASMPLTDAAFEAEYLAVDQVEKLGNEEQALLFSIFNRFRNSGKGFLLLGSEYTPQQLVIREDLRTRMAYCLVYEVKPLTDQEKIDALASMAAARQVTVDSEIFEYLLKHWRRDMDSLMMMLDTLDNYAVTMGKRITLPLLRQLLKQQETQLEHHHHHH"
OUT: not failed

IN: Which protein production is reported for this sequence? "MKEDIVSGTVKRVERHGIIVEVVAGKLDALIPRDQMIPRENFRSGDRIRALFLRVEEIGNTGRKQVILSRTSGLEHHHHHH"
OUT: not failed

IN: Which protein production is reported for this sequence? "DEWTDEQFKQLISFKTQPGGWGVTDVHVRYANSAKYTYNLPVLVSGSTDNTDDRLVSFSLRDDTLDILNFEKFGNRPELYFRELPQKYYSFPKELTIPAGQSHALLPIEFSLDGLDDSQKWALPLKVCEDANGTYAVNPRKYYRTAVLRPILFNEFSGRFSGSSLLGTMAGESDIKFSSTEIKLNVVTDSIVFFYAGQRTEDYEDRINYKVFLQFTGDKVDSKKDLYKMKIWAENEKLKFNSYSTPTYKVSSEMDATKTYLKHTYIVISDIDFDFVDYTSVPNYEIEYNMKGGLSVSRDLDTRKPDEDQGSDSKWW"
OUT: not failed

IN: Which protein production is reported for this sequence? "MQTFAPGTRVYHLIIIVFFFFFCLSSFFASIVMADEYTGEATGSSEAKVHIIYTEKPTDEEPKTYHLRTLSSALGSEEAAKDALIYSYKEAASGFSAKLTPEQVAEISKQPGVIQVVPSQTYQLHKPGGGGGFKLT"
OUT: failed

IN: Which protein production is reported for this sequence? "MSLIPLRQNIASMKGYIPGYQPPDIASWIKLNTNENPYPPSPEVVKAILEELGPDGAALRIYPSASSQKLREVAGELYGFDPSWIIMANGSDEVLNNLIRAFAAEGEEIGYVHPSYSYYGTLAEVQGARVRTFGLTGDFRIAGFPERYEGKVFFLTTPNAPLGPSFPLEYIDELARRCAGMLVLDETYAEFAESNALELVRRHENVVVTRTLSKSYSLAGMRIGLAIARPEVIAALDKIRDHYNLDRLAQAACVAALRDQAYLSECCRRIRETREWFTTELRSIGYDVIPSQGNYLFATPPDRDGKRVYDGLYARKVLVRHFSDPLLAHGMRISIGTREEMEQTLAALKEIGEGHHHHHH"
OUT: not failed
